Target: murine uPA (muPA) (Mus musculus, UniProt P06869)
Sequence (P06869 180-426 limits assumed): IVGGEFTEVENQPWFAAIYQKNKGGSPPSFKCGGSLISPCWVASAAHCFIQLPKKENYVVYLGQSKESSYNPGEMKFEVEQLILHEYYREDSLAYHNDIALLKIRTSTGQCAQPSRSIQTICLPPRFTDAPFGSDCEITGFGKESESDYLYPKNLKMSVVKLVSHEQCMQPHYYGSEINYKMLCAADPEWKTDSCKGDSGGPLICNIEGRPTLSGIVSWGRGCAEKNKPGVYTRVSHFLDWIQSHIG
Counter-ions that a name gives are not always drawn.
measured_endpoint: pIC50
API: returns pIC50 as number; meaning -log10 of concentration in mol/L.

Record request: pIC50 value, item CN(C)C(=O)COC(=O)Cc1ccc(OC(=O)c2ccc(NC(=N)N)cc2)cc1 [camostat, camostat mesylate]
7.00

###

Target: factor XIa (FXIa) (Homo sapiens)
Sequence (P03951 388-623 limits assumed): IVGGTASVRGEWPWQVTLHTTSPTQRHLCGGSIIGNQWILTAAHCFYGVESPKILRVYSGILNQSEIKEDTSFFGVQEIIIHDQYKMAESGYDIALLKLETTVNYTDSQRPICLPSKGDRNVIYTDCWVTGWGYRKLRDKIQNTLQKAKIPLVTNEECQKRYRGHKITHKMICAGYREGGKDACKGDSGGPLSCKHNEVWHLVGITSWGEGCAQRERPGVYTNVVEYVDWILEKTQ
Structures can show the parent of a compound that is named as a salt.
measured_endpoint: IC50
Kindly format the answer as number then unit.

Record request: IC50 value, item CN(C)C(=O)COC(=O)Cc1ccc(OC(=O)c2ccc(NC(=N)N)cc2)cc1 [camostat, camostat mesylate]
44.1 nM

###

Target: uPA (Homo sapiens, UniProt P00749, C299A/N322Q)
Assay: Chromogenic enzyme inhibition assay, uPA serine protease domain
Where a name gives a salt, the structure may show the parent alone.
measured_endpoint: IC50 (nM)
Report the value in nM with no unit label.

Record request: IC50 value, item CN(C)C(=O)COC(=O)Cc1ccc(OC(=O)c2ccc(NC(=N)N)cc2)cc1 [camostat, camostat mesylate]
86.4
